Tested on: Mycobacterium tuberculosis Erdman (autoluminescent)
Assay: Einf, fitted maximum growth inhibition of three-drug combination (fraction); higher = stronger maximal inhibition
Details: in vitro model: valerate; time point: terminal (~4-5 doublings, model-specific)

molecule	Einf
CC(C)/N=c1\cc2n(-c3ccc(Cl)cc3)c3ccccc3nc-2cc1Nc1ccc(Cl)cc1 [clofazimine] + NNC(=O)c1ccncc1 [isoniazid] + CC(=O)NC[C@H]1CN(c2ccc(N3CCOCC3)c(F)c2)C(=O)O1 [linezolid]	0.934
NNC(=O)c1ccncc1 [isoniazid] + CC(=O)NC[C@H]1CN(c2ccc(N3CCOCC3)c(F)c2)C(=O)O1 [linezolid] + NC(=O)c1cnccn1 [pyrazinamide]	0.927
CC(C)/N=c1\cc2n(-c3ccc(Cl)cc3)c3ccccc3nc-2cc1Nc1ccc(Cl)cc1 [clofazimine] + O=[N+]([O-])c1cn2c(n1)OC[C@@H](OCc1ccc(OC(F)(F)F)cc1)C2 [pretomanid] + CO[C@H]1/C=C/O[C@@]2(C)Oc3c(C)c(O)c4c(O)c(c(/C=N/N5CCN(C6CCCC6)CC5)c(O)c4c3C2=O)NC(=O)/C(C)=C\C=C\[C@H](C)[C@H](O)[C@@H](C)[C@@H](O)[C@@H](C)[C@H](OC(C)=O)[C@@H]1C [rifapentine]	0.953
COc1c(N2C[C@@H]3CCCN[C@@H]3C2)c(F)cc2c(=O)c(C(=O)O)cn(C3CC3)c12 [moxifloxacin] + O=[N+]([O-])c1cn2c(n1)OC[C@@H](OCc1ccc(OC(F)(F)F)cc1)C2 [pretomanid] + CO[C@H]1/C=C/O[C@@]2(C)Oc3c(C)c(O)c4c(O)c(c(/C=N/N5CCN(C)CC5)c(O)c4c3C2=O)NC(=O)/C(C)=C\C=C\[C@H](C)[C@H](O)[C@@H](C)[C@@H](O)[C@@H](C)[C@H](OC(C)=O)[C@@H]1C [rifampicin]	0.924
COc1c(N2C[C@@H]3CCCN[C@@H]3C2)c(F)cc2c(=O)c(C(=O)O)cn(C3CC3)c12 [moxifloxacin] + O=[N+]([O-])c1cn2c(n1)OC[C@@H](OCc1ccc(OC(F)(F)F)cc1)C2 [pretomanid] + NC(=O)c1cnccn1 [pyrazinamide]	0.945
COc1nc2ccc(Br)cc2cc1[C@@H](c1ccccc1)[C@@](O)(CCN(C)C)c1cccc2ccccc12 [bedaquiline] + NNC(=O)c1ccncc1 [isoniazid] + CC(=O)NC[C@H]1CN(c2ccc(N3CCOCC3)c(F)c2)C(=O)O1 [linezolid]	0.959
CC(=O)NC[C@H]1CN(c2ccc(N3CCOCC3)c(F)c2)C(=O)O1 [linezolid] + COc1c(N2C[C@@H]3CCCN[C@@H]3C2)c(F)cc2c(=O)c(C(=O)O)cn(C3CC3)c12 [moxifloxacin] + CO[C@H]1/C=C/O[C@@]2(C)Oc3c(C)c(O)c4c(O)c(c(/C=N/N5CCN(C)CC5)c(O)c4c3C2=O)NC(=O)/C(C)=C\C=C\[C@H](C)[C@H](O)[C@@H](C)[C@@H](O)[C@@H](C)[C@H](OC(C)=O)[C@@H]1C [rifampicin]	0.928
